- EXPERIMENTAL_TARGET: T1, SH2 domain of Crkl protein (residues 1-111), H33A variant (UniProt P46109 1-111, H33A)
- T1 construct: Crkl adaptor protein, SH2 domain, residues 1-111, His33 replaced by alanine; Site-directed mutant of m1 (QuikChange); source: E. coli BL21 (DE3), purified (HisTrap nickel column, desalting); not shown: His tag, N-terminal, kept
- T1 sequence (P46109 1-111 H33A): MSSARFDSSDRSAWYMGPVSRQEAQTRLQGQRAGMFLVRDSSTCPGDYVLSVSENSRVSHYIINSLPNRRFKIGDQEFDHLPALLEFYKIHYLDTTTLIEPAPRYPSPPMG
- METHOD_DESCRIPTION: stopped-flow fluorescence kinetics (FRET); dansyl-Pax112-123 constant at 2 μM mixed with Crkl-SH2 2 to 10 μM (pseudo-first-order, kon); koff by displacement of the preincubated 2 µM complex with excess non-dansylated Pax112-123 (30 μM); 283 K; 50 mM sodium-acetate pH 5.5, 0.5 M NaCl
- PARTICULARS: both partners purified
pKd: −log10 of the molar value. Square brackets hold non-standard residues; d marks the D form. Ends that are not written are not given here. * marks the point of attachment. pY = N[C@@H](Cc1ccc(OP(=O)(O)O)cc1)C(=O)O; Dansyl = CN(C)c1cccc2c(S(=O)(=O)*)cccc12

# BINDER, pKd
rows = [
    ("Dansyl-GEEEHV[pY]SFPNK (The dansyl group is the FRET acceptor of Trp14 of the SH2 domain; source: synthetic peptide, bought: GenScript) [dansylated Pax_(112–123) peptide (Dans-GEEEHV-pY-SFPNK)]", 5.47),
]

Origin of values: paper PMC9332313
